# Test system: HCT-116 colon
# assay explanation: NCI-60 one-dose screen, 48 h
# measurement parameters: 10 µM unless noted
# Description: Growth inhibition of the HCT-116 human tumor cell line is measured as a screen for anti-cancer activity. Cells are grown in 96 well plates and exposed to the test compound for 48 hours. Compounds are tested at a single concentration, which is 10^-5 M for most compounds. The reported endpoint is percent growth (GI% or GIPRCNT), where numbers from 0 - 100% represent growth inhibition, and numbers from -100% - 0 represent cell death. For example, a value of 40 represents 60% growth inhibition. […]
Compounds without any hit were thinned out: in the full panel of roughly 83,000, 20% have a hit. Active and inactive are the calls of the source. Rule for the calls: active = growth percent below 10; inactive = the rest.
Write down one outcome, taken from Yes for active, No for inactive

Before answering, review these 8 worked examples.
compound	label value
O=[N+]([O-])c1ccccc1Nc1ccc2ccccc2c1	No
COc1ccc(Oc2ccc(/C=C/C(=O)c3ccc(OC)c(OC)c3)cc2)cc1	No
CCN(CC)c1ccc(-c2cc(-c3cc(OC)c(OC)c(OC)c3)nc(N3CCC(O)CC3)c2C#N)cc1	Yes
COCCn1cc(-c2nc(-c3cc4cccnc4n3C)cs2)c2ccccc21	No
Cn1c(=O)[nH]c(=O)c2nc3c(nc21)-c1ccccc1C3=O	No
COc1cc(C[C@H]2COc3cc(O)cc(O)c3C2=O)ccc1O	No
O=C(Cn1nc(-c2cccc3ccccc23)ccc1=O)NCc1cccc(Cl)c1	No
CC[C@H](Nc1nc(N)nc(C)c1C#N)c1nc2cccc(CN(C)c3ncc(C(=O)NO)cn3)c2c(=O)n1-c1ccccc1	Yes

Task: Fill in: this test's call for CCN(CC)C(=O)C1=C(C)NC(=O)NC1c1ccc2c(c1)OCO2 (configuration not stated) is ___
Output: No

Task: Further, for C/C(Cc1ccc(Cl)cc1)=C(\c1ccc(OCCN2CCCCCC2)cc1)c1ccc(OC(=O)c2ccccc2)cc1 ?
Output: Yes

Task: Further, for COc1cccc(CNc2c3ccccc3nc3ccccc23)c1OC ?
Output: No

----------
# System: UACC-257 melanoma
# assay explanation: NCI-60 one-dose screen, 48 h
# measurement parameters: 10 µM unless noted
Compounds without any hit were thinned out: in the full panel of roughly 83,000, 20% have a hit. The source made the active and inactive calls. The calls were made as follows: active = growth percent below 10; inactive = the rest.
Write down one outcome, taken from active, inactive

Before answering, review these 8 worked examples.
molecule	target or test system	label value
COc1cc2ncnc(Nc3ccc(F)c(Cl)c3)c2cc1OCC(=O)N1CCOCC1	UACC-257 melanoma	inactive
O=C(NC1CCC(Br)CC1)C1CCCC(S(=O)(=O)NC2CCCCC2)C1 (stereo unspecified)	UACC-257 melanoma	active
C/C=C1/CN(CCCCC)CC[C@H]1C(=O)c1cc2ccccc2[nH]1	UACC-257 melanoma	inactive
Nc1nc(N(Cc2ccccc2)c2ccccc2)c2cn[nH]c2n1	UACC-257 melanoma	inactive
CCCCCc1ccc(S(=O)(=O)Nc2ccc3nc(N)oc3c2)cc1	UACC-257 melanoma	inactive
O=C(NN1C(=O)CSC1c1cccc([N+](=O)[O-])c1)c1ccc(NC(=O)c2ccccn2)cc1 (stereo unspecified)	UACC-257 melanoma	inactive
CCOC(=O)NCCCC(=O)NCCc1ccccc1	UACC-257 melanoma	inactive
COC(=O)c1ccc2cc(OC)c(OC)cc2c1	UACC-257 melanoma	inactive

Task: Fill in: this test's call for CCN(CC)CCCC(Cc1ccccc1)Nc1c2ccc(Cl)cc2nc2ccc(OC)cc12 (stereo unspecified) is ___
Output: active

Task: Further, for O=C1CCC(C(=O)N/N=C/c2cc(F)ccc2F)N1 (stereo unspecified) ?
Output: inactive

Task: Further, for O=C1Nc2ccccc2/C1=N/N1C(=O)CN(CCCl)C1=O ?
Output: inactive
